test system: Escherichia coli TOP10; experiment: shrunken log2 fold change of peptide-encoding DNA abundance (4.5 h post-induction vs induction); higher = less antimicrobial activity (less host growth inhibition); details: time post-induction: 4.5 h; library: site-saturation at positions 5, 18, 19, 20;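 further: peptides expressed intracellularly from a pBAD plasmid library in pooled LB shake-flask culture, induced with 0.3% L-arabinose, DNA abundance read by NGS, three biological replicates, DESeq2 with apeglm shrinkage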
The entries below come with measured shrunken log2 fold change values attached.
quantity.kind: shrunken log2 fold change

[
  {
    "sequence.code": "RRIRGRPPRLPRPRPRPDSMPRP",
    "quantity.kind": "shrunken log2 fold change",
    "test.result": 0.245
  },
  {
    "sequence.code": "RRIRERPPRLPRPRPRPDENPRP",
    "quantity.kind": "shrunken log2 fold change",
    "test.result": -0.0287
  },
  {
    "sequence.code": "RRIRNRPPRLPRPRPRPYYSPRP",
    "quantity.kind": "shrunken log2 fold change",
    "test.result": -0.541
  },
  {
    "sequence.code": "RRIRTRPPRLPRPRPRPLWNPRP",
    "quantity.kind": "shrunken log2 fold change",
    "test.result": -0.44
  },
  {
    "sequence.code": "RRIRDRPPRLPRPRPRPKYSPRP",
    "quantity.kind": "shrunken log2 fold change",
    "test.result": -0.0792
  },
  {
    "sequence.code": "RRIRFRPPRLPRPRPRPQQFPRP",
    "quantity.kind": "shrunken log2 fold change",
    "test.result": 0.0682
  },
  {
    "sequence.code": "RRIRQRPPRLPRPRPRPLWLPRP",
    "quantity.kind": "shrunken log2 fold change",
    "test.result": 0.0736
  },
  {
    "sequence.code": "RRIRMRPPRLPRPRPRPKHKPRP",
    "quantity.kind": "shrunken log2 fold change",
    "test.result": 0.562
  },
  {
    "sequence.code": "RRIRERPPRLPRPRPRPTMTPRP",
    "quantity.kind": "shrunken log2 fold change",
    "test.result": -0.389
  },
  {
    "sequence.code": "RRIRKRPPRLPRPRPRPNPYPRP",
    "quantity.kind": "shrunken log2 fold change",
    "test.result": -0.384
  },
  {
    "sequence.code": "RRIRTRPPRLPRPRPRPCRHPRP",
    "quantity.kind": "shrunken log2 fold change",
    "test.result": -0.101
  },
  {
    "sequence.code": "RRIRRRPPRLPRPRPRPGESPRP",
    "quantity.kind": "shrunken log2 fold change",
    "test.result": 0.0142
  },
  {
    "sequence.code": "RRIRGRPPRLPRPRPRPNHKPRP",
    "quantity.kind": "shrunken log2 fold change",
    "test.result": -0.195
  },
  {
    "sequence.code": "RRIRARPPRLPRPRPRPKRIPRP",
    "quantity.kind": "shrunken log2 fold change",
    "test.result": 0.122
  },
  {
    "sequence.code": "RRIRDRPPRLPRPRPRPRLPPRP",
    "quantity.kind": "shrunken log2 fold change",
    "test.result": 0.4
  },
  {
    "sequence.code": "RRIRYRPPRLPRPRPRPQHHPRP",
    "quantity.kind": "shrunken log2 fold change",
    "test.result": -0.55
  },
  {
    "sequence.code": "RRIRPRPPRLPRPRPRPVMAPRP",
    "quantity.kind": "shrunken log2 fold change",
    "test.result": -0.128
  },
  {
    "sequence.code": "RRIRFRPPRLPRPRPRPEWLPRP",
    "quantity.kind": "shrunken log2 fold change",
    "test.result": 0.402
  },
  {
    "sequence.code": "RRIRIRPPRLPRPRPRPHECPRP",
    "quantity.kind": "shrunken log2 fold change",
    "test.result": -0.164
  },
  {
    "sequence.code": "RRIRHRPPRLPRPRPRPVRMPRP",
    "quantity.kind": "shrunken log2 fold change",
    "test.result": 0.246
  },
  {
    "sequence.code": "RRIRDRPPRLPRPRPRPFYLPRP",
    "quantity.kind": "shrunken log2 fold change",
    "test.result": -0.085
  },
  {
    "sequence.code": "RRIRLRPPRLPRPRPRPTHCPRP",
    "quantity.kind": "shrunken log2 fold change",
    "test.result": -0.0342
  },
  {
    "sequence.code": "RRIRIRPPRLPRPRPRPVYKPRP",
    "quantity.kind": "shrunken log2 fold change",
    "test.result": -0.834
  },
  {
    "sequence.code": "RRIRWRPPRLPRPRPRPLREPRP",
    "quantity.kind": "shrunken log2 fold change",
    "test.result": 0.125
  },
  {
    "sequence.code": "RRIRRRPPRLPRPRPRPIHHPRP",
    "quantity.kind": "shrunken log2 fold change",
    "test.result": -0.207
  },
  {
    "sequence.code": "RRIRARPPRLPRPRPRPGFYPRP",
    "quantity.kind": "shrunken log2 fold change",
    "test.result": 0.0241
  },
  {
    "sequence.code": "RRIRRRPPRLPRPRPRPKQHPRP",
    "quantity.kind": "shrunken log2 fold change",
    "test.result": 0.302
  },
  {
    "sequence.code": "RRIRARPPRLPRPRPRPHVEPRP",
    "quantity.kind": "shrunken log2 fold change",
    "test.result": 0.147
  },
  {
    "sequence.code": "RRIRCRPPRLPRPRPRPCQCPRP",
    "quantity.kind": "shrunken log2 fold change",
    "test.result": -0.208
  },
  {
    "sequence.code": "RRIRNRPPRLPRPRPRPEHNPRP",
    "quantity.kind": "shrunken log2 fold change",
    "test.result": -0.486
  },
  {
    "sequence.code": "RRIRSRPPRLPRPRPRPTKAPRP",
    "quantity.kind": "shrunken log2 fold change",
    "test.result": 0.266
  },
  {
    "sequence.code": "RRIRNRPPRLPRPRPRPWHKPRP",
    "quantity.kind": "shrunken log2 fold change",
    "test.result": -0.0524
  }
]
